method_notes: gradient 5% acetonitrile 3 min, to 50% in 2 min, to 85% in 15 min, held 3 min, 100 µL/min
measurement_parameters: column: Zorbax Extend-C18 2.1 x 50 mm; eluents: water / acetonitrile, 0.1% formic acid
In this section, each of the compounds is paired with its reported RP-LC retention time.
Please state the figure in s; there is no need to write the unit.

Solved entries:
>  <compound>
O=C(CCc1c(-c2ccccc2)nc2ccccn12)NCc1cccc(Cl)c1

>  <reading_unit>
s

>  <RP-LC retention time>
681

$$$$
>  <compound>
COCCN1C(=O)c2cccn2CC1CNC(=O)CC(C)C (stereo not given)

>  <reading_unit>
s

>  <RP-LC retention time>
639

$$$$
>  <compound>
Cc1cc(C)cc(NC(=O)Nc2nccn(-c3ccc4c(c3)CCC4)c2=O)c1

>  <reading_unit>
s

>  <RP-LC retention time>
1210

$$$$
>  <compound>
c1ccc(COCCc2noc(C3CCCN3)n2)cc1 (stereo not given)

>  <reading_unit>
s

>  <RP-LC retention time>
614

$$$$
>  <compound>
CN1C(=O)CCc2cc(NC(=O)Cc3cccs3)ccc21

>  <reading_unit>
s

>  <RP-LC retention time>
702

$$$$

## Task Identify measured RP-LC retention time associated with CC1(C)CCC[C@]2(C)[C@H]3CC(=O)O[C@]3(C)CC[C@@H]12
## Result 1220

## Task Consider the compound Cc1ccc2c(Nc3ccc(F)cc3C)c(-c3nc(C)no3)cnc2n1 . State its measured RP-LC retention time.
## Result 756

## Task Quote RP-LC retention time reported for COc1ccc(C(=O)CC2(O)C(=O)Nc3ccc(C)cc32)cc1OC (stereo not given) please.
## Result 670

## Task Answer with reported RP-LC retention time of Cc1cccc(C)c1NC(=O)N1CCC(OC2CCN(S(C)(=O)=O)CC2)CC1
## Result 718

## Task Return reported RP-LC retention time. Input compound: CN(CCc1noc(C2CN(Cc3c(F)cccc3Cl)C2)n1)S(C)(=O)=O
## Result 594

----------
method_notes: gradient 5% acetonitrile 3 min, to 50% in 2 min, to 85% in 15 min, held 3 min, 100 µL/min
measurement_parameters: column: Zorbax Extend-C18 2.1 x 50 mm; eluents: water / acetonitrile, 0.1% formic acid
# label 1 = RP-LC retention time below 800 s (exclusive); label 0 = RP-LC retention time at/above 800 s

These recorded examples may help you get a feel for the data.
>  <compound>
CCOC(=O)c1ccc(NS(=O)(=O)c2cc3n(c2)CCCN(CC)C3=O)cc1

>  <label>
label 1

$$$$
>  <compound>
Cc1ccc(NC(=O)N2CCCC2c2nc(-c3ccc(F)cc3F)no2)c(Cl)c1 (stereo not given)

>  <label>
label 0

$$$$
>  <compound>
CC(C)CN1C(=O)c2ccccc2C(C(=O)NCCCN2CCN(C)CC2)C1c1cccs1 (stereo not given)

>  <label>
label 1

$$$$

## Task Hi there! Is RP-LC retention time for O=C(NC1CCCC1)C1CCCN(c2ccc(=O)n(-c3ccc(F)cc3)n2)C1 (stereo not given) below 800 s, do you know?
## Result label 1

----------
Listed below: RP-LC retention time values for each entry.
method_notes: gradient 5% acetonitrile 3 min, to 50% in 2 min, to 85% in 15 min, held 3 min, 100 µL/min
measurement_parameters: column: Zorbax Extend-C18 2.1 x 50 mm; eluents: water / acetonitrile, 0.1% formic acid
Record the value in s, omitting the unit from your answer.

>  <compound>
Cc1ccc(-c2nnc(-c3ccc(Br)cc3)o2)cc1S(=O)(=O)N1CCCC1

>  <RP-LC retention time (s)>
1190

$$$$
>  <compound>
Cc1cc(Cl)ccc1NC(=O)N1C[C@@H](F)C[C@H]1C(=O)N1CCc2ccccc2C1

>  <RP-LC retention time (s)>
908

$$$$
>  <compound>
COc1ccc(CCNC(=O)c2ccco2)cc1OC

>  <RP-LC retention time (s)>
642

$$$$

## Task Could you please provide reported RP-LC retention time for Cc1cccc(N2CCN(CC(O)c3ccc4c(c3)OCO4)CC2)c1 (stereo not drawn) ? Thanks!
## Result 669

## Task Name the recorded RP-LC retention time of the compound listed here: COc1ccc(CC(=O)N2CCC(n3cnnc3C3CC3)CC2)cc1Cl
## Result 658

## Task Please give measured RP-LC retention time of the following entry: O=C1NCCCn2cc(S(=O)(=O)Nc3ccc(F)cc3F)cc21
## Result 641

## Task Provide one value: measured RP-LC retention time of OCCn1cc(-c2cnc3nnn(Cc4ccc5ncccc5c4)c3n2)cn1
## Result 620

## Task Specify RP-LC retention time for CC(C)C(=O)NCc1csc(C2CCN(C(=O)COc3ccccc3)CC2)n1 and stop.
## Result 722

## Task Identify RP-LC retention time associated with the compound CC1CCN(c2nc(C(=O)NCc3ccccn3)nc3c2cnn3C)CC1
## Result 660

## Task // Input: Cc1ccc(NC(=O)N2CCCC2c2nc(-c3cccc(F)c3)no2)c(C)c1 (stereo not drawn) . Output its RP-LC retention time only.
## Result 1030

## Task Supply recorded RP-LC retention time for O=C(NCC1(c2cccs2)CCOCC1)c1cccs1 here.
## Result 705

## Task Supply recorded RP-LC retention time for CCNC(=O)c1sc2nc(-c3cccc(F)c3)c(NCCOC)n2c1C here.
## Result 800

## Task Please supply the value of reported RP-LC retention time for the item Cc1cc(C)c(S(=O)(=O)N2CCc3c(c(-c4nnc(-c5ccc(F)cc5)o4)nn3C)C2)c(C)c1
## Result 1090

## Task Determine its reported RP-LC retention time: Cc1ccc(Cn2cccc(C(=O)Nc3nc4c(C)cccc4s3)c2=O)cc1
## Result 1240

----------
method_notes: gradient 5% acetonitrile 3 min, to 50% in 2 min, to 85% in 15 min, held 3 min, 100 µL/min
measurement_parameters: column: Zorbax Extend-C18 2.1 x 50 mm; eluents: water / acetonitrile, 0.1% formic acid
// thresholds for RP-LC retention time classes: lower bin = under 800 s, middle bin = from 800 s up to 900 s, upper bin = 900 s and over

## Task Consider COCC(C)(O)CNC(=O)c1cc(Cl)ccc1Cl (centres undefined) . To which RP-LC retention time class does it belong?
## Result lower bin

## Task Which RP-LC retention time category applies to Cc1cc(=O)n(CC(=O)Nc2ccccc2F)c(N2CCCC2)n1 here?
## Result lower bin

## Task Lab note: sort Cc1nnc2n1CCC(N(C)C(=O)Cc1cccs1)CC2 (centres undefined) into the matching RP-LC retention time band.
## Result lower bin

## Task Into which category would you place COc1ccc(-n2cc(C(=O)OCC(=O)OC(C)C)c3ccccc3c2=O)cc1 ?
## Result upper bin

## Task Hello team, could you let me know which band the following compound falls into: CC(C)Oc1ccc(CNC(=O)C2CCCN(c3ccc(=O)n(-c4cccc(Cl)c4)n3)C2)cc1 (centres undefined)
## Result upper bin

## Task Could you tell me which band CC1(C(=O)NCc2ccccc2)CCCN(C(=O)Nc2ccc(F)cc2)C1 (centres undefined) belongs to?
## Result lower bin

## Task Bin? COC1CN(c2cccc(F)c2)C12CCN(Cc1ccc(C)o1)CC2 (centres undefined)
## Result lower bin

## Task Into which bin does this compound go? CN(C)c1ccc(C(CNC(=O)CN2C(=O)c3ccccc3C2=O)N2CCCC2)cc1 (centres undefined)
## Result lower bin

## Task GET /class?item= O=C(Nc1ccccc1F)N1CCC(n2cnc3c(Cl)cccc3c2=O)CC1
## Result middle bin

## Task Please indicate the class for CN(Cc1ccccc1)C(=O)CN1c2ccc(F)cc2-c2ccccc2S1(=O)=O based on its RP-LC retention time.
## Result upper bin

## Task # classify by RP-LC retention time band: CC(=O)N(Cc1nn(C)c2c1CN(S(=O)(=O)c1cc(C)cc(C)c1)CC2)c1ccccc1
## Result middle bin

## Task Kindly state the category for this compound: CC(C)n1cc(S(=O)(=O)N2CCN(c3ccccc3F)CC2)c2cccnc21
## Result upper bin

----------
Each entry below carries its reported RP-LC retention time.
method_notes: gradient 5% acetonitrile 3 min, to 50% in 2 min, to 85% in 15 min, held 3 min, 100 µL/min
measurement_parameters: column: Zorbax Extend-C18 2.1 x 50 mm; eluents: water / acetonitrile, 0.1% formic acid
Report only the number, with the unit s understood.

Look over these answered cases.
>  <compound>
COc1ccccc1-c1noc(Cn2ncn3nc(-c4cc(C)ccc4C)cc3c2=O)n1

>  <reading_unit>
s

>  <RP-LC retention time>
1100

$$$$
>  <compound>
Cc1cccc(NC(=O)N2CCCC2c2nc(-c3ccccc3)no2)c1 (stereo not given)

>  <reading_unit>
s

>  <RP-LC retention time>
984

$$$$
>  <compound>
CC(C)NC(=O)CN1C(=O)C2CCCCN2c2ccc(C(=O)N3CCCCC3)cc21 (stereo not given)

>  <reading_unit>
s

>  <RP-LC retention time>
735

$$$$
>  <compound>
CC1CCCCN1CCCNC(=O)CCC(=O)N1CCc2c(c(C(=O)N3CCCCC3)nn2C)C1 (stereo not given)

>  <reading_unit>
s

>  <RP-LC retention time>
578

$$$$

Please find the next compound below.
## Task Assign RP-LC retention time to the following record: CN(C)S(=O)(=O)c1cc(-c2nnc(-c3ccc(F)cc3)o2)ccc1Cl
## Result 991
